Biological target: NK1 (Homo sapiens, UniProt P25103)
Sequence (P25103 whole entry): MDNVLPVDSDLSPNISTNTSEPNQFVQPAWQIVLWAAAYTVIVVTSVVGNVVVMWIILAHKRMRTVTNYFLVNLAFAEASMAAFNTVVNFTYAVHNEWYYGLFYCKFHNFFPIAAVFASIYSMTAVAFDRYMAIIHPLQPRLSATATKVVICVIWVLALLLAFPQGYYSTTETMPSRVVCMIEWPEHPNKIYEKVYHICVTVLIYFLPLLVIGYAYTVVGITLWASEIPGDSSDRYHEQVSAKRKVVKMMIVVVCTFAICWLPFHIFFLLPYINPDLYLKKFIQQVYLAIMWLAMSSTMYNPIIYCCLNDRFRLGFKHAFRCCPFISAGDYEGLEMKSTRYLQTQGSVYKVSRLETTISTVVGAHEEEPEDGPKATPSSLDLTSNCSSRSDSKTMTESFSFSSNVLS
Experiment: Signal transduction (ST), intracellular Ca++ (FLIPR), NK1 antagonistic activity
Type: cell-based
Settings: read-out: pIC50 NK1 (converted)
measured-metric: IC50
The number alone won't do; follow it with the unit.

Some solved cases for reference:
[
  {
    "compound": "O=C(C1CC1)N1CCC(N2CCN(C3CCN(C(=O)c4cc(C(F)(F)F)cc(C(F)(F)F)c4)C(Cc4ccccc4)C3)CC2)C1 (single isomer, unassigned) [Compound 137]",
    "IC50": "158 nM"
  },
  {
    "compound": "N#CN=C(N1CCCC1)N1CCC(N2CCN([C@H]3CCN(C(=O)c4cc(C(F)(F)F)cc(C(F)(F)F)c4)[C@H](Cc4ccccc4)C3)CC2)C1 (stereo partly drawn)",
    "IC50": "7.94 nM"
  }
]

IC50 reported for this compound O=C(c1cc(C(F)(F)F)cc(C(F)(F)F)c1)N1CCC(N2CCN(C3CCN(c4noc5ccccc45)C3)CC2)CC1Cc1ccccc1 (stereo not drawn) : 25.1 nM
